Exercise: state measured molecular ellipticity for each of the compounds provided.
tested on: DNA; assay: Binding affinity to Bos taurus (calf) thymus DNA assessed as positive band intensity at 100 uM after 24 hr by CD spectra analysis (reference value: 21429 +/- 276 deg cm2/dmol'-1); assay type: nucleic-acid assay
Numbers only, in deg.cm2/dmol.

• C[C@@H](O)[C@H](NCCc1nc(C(=O)O)cc2c3ccccc3n(Cc3ccccc3)c12)C(=O)O = 17400
• O=C(O)C[C@H](NCCc1nc(C(=O)O)cc2c3ccccc3n(Cc3ccccc3)c12)C(=O)O = 2750
• O=C(O)c1cc2c3ccccc3n(Cc3ccccc3)c2c(CCN[C@@H](CO)C(=O)O)n1 = 10100

Could you now look at the following compound, please?
Prompt: Which value of molecular ellipticity has been reported for "O=C(O)c1cc2c3ccccc3n(Cc3ccccc3)c2c(CCN[C@@H](Cc2ccc(O)cc2)C(=O)O)n1" in the records?
Completion: 28900

====

system: DNA; assay: Binding affinity to Bos taurus (calf) thymus DNA assessed as hypsochromic shift at 20 uM by UV spectra analysis; assay type: nucleic-acid assay
Assay endpoint: Activity (nm)
One number for each entry, in nm.

• O=C(O)c1cc2c3ccccc3n(Cc3ccccc3)c2c(CCN[C@@H](CO)C(=O)O)n1 = 4.8

Can you give me Activity for all of these, one by one?
1. O=C(O)c1cc2c3ccccc3n(Cc3ccccc3)c2c(CCN[C@@H](Cc2ccc(O)cc2)C(=O)O)n1
2. O=C(O)C[C@H](NCCc1nc(C(=O)O)cc2c3ccccc3n(Cc3ccccc3)c12)C(=O)O
3. C[C@@H](O)[C@H](NCCc1nc(C(=O)O)cc2c3ccccc3n(Cc3ccccc3)c12)C(=O)O

Completion:
1: 4.8; 2: 3.4; 3: 0

====

Exercise: state measured Tm for each of the molecules provided.
tested on: DNA; assay: Binding affinity to Bos taurus (calf) thymus DNA assessed as melting temperature at 20 uM (reference value: 60.3 degC); format: nucleic-acid assay
Give bare numbers, in °C.

• O=C(O)c1cc2c3ccccc3n(Cc3ccccc3)c2c(CCN[C@@H](CO)C(=O)O)n1 = 71.1
• O=C(O)C[C@H](NCCc1nc(C(=O)O)cc2c3ccccc3n(Cc3ccccc3)c12)C(=O)O = 73.2

Can you give me Tm for all of these, one by one?
1. O=C(O)c1cc2c3ccccc3n(Cc3ccccc3)c2c(CCN[C@@H](Cc2ccc(O)cc2)C(=O)O)n1
2. C[C@@H](O)[C@H](NCCc1nc(C(=O)O)cc2c3ccccc3n(Cc3ccccc3)c12)C(=O)O

Completion:
[72.2, 65.4]

====

system: CCRF S-180; assay: Antitumor activity against Mus musculus (mouse) S180 cells xenografted in ICR Mus musculus (mouse) assessed as tumor growth inhibition at 89 umol/kg, ip qd for 7 days measured after 24 hr of last dose relative to control; type: functional; details: CCRF S-180, ip, read-out: TGI
Everything with inhibition in vivo at 89 µmol/kg lower than 50% is NOT MET; everything else, including exactly 50%, is MET.

* Nc1ccn([C@@H]2O[C@H](CO)[C@@H](O)[C@@H]2O)c(=O)n1 | MET
* O=C(O)C[C@H](NCCc1nc(C(=O)O)cc2c3ccccc3n(Cc3ccccc3)c12)C(=O)O | NOT MET
* C[C@@H](O)[C@H](NCCc1nc(C(=O)O)cc2c3ccccc3n(Cc3ccccc3)c12)C(=O)O | NOT MET

Please find the next compound below.
Prompt: Decide: is the reported value of inhibition in vivo at 89 µmol/kg for "O=C(O)c1cc2c3ccccc3n(Cc3ccccc3)c2c(CCN[C@@H](CO)C(=O)O)n1" equal to or greater than 50%?
Completion: NOT MET

====

tested on: DNA; assay: Binding affinity to Bos taurus (calf) thymus DNA assessed as change in DNA viscosity; assay type: nucleic-acid assay
Activity calls are given as the source filed them. The calls are words filed in the database; no cut-off is given here.
Assay endpoint: Activity

- O=C(O)C[C@H](NCCc1nc(C(=O)O)cc2c3ccccc3n(Cc3ccccc3)c12)C(=O)O: Active
- O=C(O)c1cc2c3ccccc3n(Cc3ccccc3)c2c(CCN[C@@H](CO)C(=O)O)n1: Active
- O=C(O)c1cc2c3ccccc3n(Cc3ccccc3)c2c(CCN[C@@H](Cc2ccc(O)cc2)C(=O)O)n1: Active
- C[C@@H](O)[C@H](NCCc1nc(C(=O)O)cc2c3ccccc3n(Cc3ccccc3)c12)C(=O)O: Active

====

system: DNA; assay: Binding affinity to Bos taurus (calf) thymus DNA assessed as hypochromic effect at 20 uM by UV spectra analysis; assay type: nucleic-acid assay
Exercise: state measured Activity for each of the molecules provided.
Numbers only, in %.

Sample records with Activity:
• O=C(O)c1cc2c3ccccc3n(Cc3ccccc3)c2c(CCN[C@@H](CO)C(=O)O)n1 = 29.6
• O=C(O)c1cc2c3ccccc3n(Cc3ccccc3)c2c(CCN[C@@H](Cc2ccc(O)cc2)C(=O)O)n1 = 30.5
• O=C(O)C[C@H](NCCc1nc(C(=O)O)cc2c3ccccc3n(Cc3ccccc3)c12)C(=O)O = 32

Could you now look at the following molecule, please?
Prompt: Which value of Activity has been reported for "C[C@@H](O)[C@H](NCCc1nc(C(=O)O)cc2c3ccccc3n(Cc3ccccc3)c12)C(=O)O" in the records?
Completion: 0

====

Exercise: state measured Activity for each of the molecules provided.
system: DNA; experiment: Binding affinity to Bos taurus (calf) thymus DNA assessed as bathochromic shift at 0.5 uM by fluorescence quenching assay; format: nucleic-acid assay
Give bare numbers, in nm.

* O=C(O)c1cc2c3ccccc3n(Cc3ccccc3)c2c(CCN[C@@H](CO)C(=O)O)n1 | 4.6
* C[C@@H](O)[C@H](NCCc1nc(C(=O)O)cc2c3ccccc3n(Cc3ccccc3)c12)C(=O)O | 2.2
* O=C(O)C[C@H](NCCc1nc(C(=O)O)cc2c3ccccc3n(Cc3ccccc3)c12)C(=O)O | 8.2

Could you now look at the following molecule, please?
Prompt: Which value of Activity has been reported for "O=C(O)c1cc2c3ccccc3n(Cc3ccccc3)c2c(CCN[C@@H](Cc2ccc(O)cc2)C(=O)O)n1" in the records?
Completion: 4.4

====

system: DNA; assay: Binding affinity to Bos taurus (calf) thymus DNA assessed as change melting temperature at 20 uM; assay type: nucleic-acid assay
Exercise: state measured ΔTm for each of the molecules provided.
One number for each entry, in °C.

Sample records with ΔTm:
- C[C@@H](O)[C@H](NCCc1nc(C(=O)O)cc2c3ccccc3n(Cc3ccccc3)c12)C(=O)O: 4.9
- O=C(O)c1cc2c3ccccc3n(Cc3ccccc3)c2c(CCN[C@@H](Cc2ccc(O)cc2)C(=O)O)n1: 11.9

Can you give me ΔTm for all of these, one by one?
1. O=C(O)C[C@H](NCCc1nc(C(=O)O)cc2c3ccccc3n(Cc3ccccc3)c12)C(=O)O
2. O=C(O)c1cc2c3ccccc3n(Cc3ccccc3)c2c(CCN[C@@H](CO)C(=O)O)n1

Completion:
[12.9, 10.8]

====

Exercise: state measured Activity for each of the molecules provided.
test system: DNA; experiment: Binding affinity to Bos taurus (calf) thymus DNA assessed as decrease in fluorescence intensity at 0.5 uM by fluorescence quenching assay; type: nucleic-acid assay; set-up: scale not given: the % may be the effect or the level left
One number for each entry, in %.

Sample records with Activity:
• O=C(O)c1cc2c3ccccc3n(Cc3ccccc3)c2c(CCN[C@@H](CO)C(=O)O)n1 = 42.4
• C[C@@H](O)[C@H](NCCc1nc(C(=O)O)cc2c3ccccc3n(Cc3ccccc3)c12)C(=O)O = 32.6
• O=C(O)c1cc2c3ccccc3n(Cc3ccccc3)c2c(CCN[C@@H](Cc2ccc(O)cc2)C(=O)O)n1 = 58.7

Prompt: Which value of Activity has been reported for "O=C(O)C[C@H](NCCc1nc(C(=O)O)cc2c3ccccc3n(Cc3ccccc3)c12)C(=O)O" in the records?
Completion: 63.9

====

test system: DNA; assay: Binding affinity to Bos taurus (calf) thymus DNA assessed as negative band intensity at 100 uM after 24 hr by CD spectra analysis (reference value: -15209 +/- 245 deg cm2/dmol'-1); format: nucleic-acid assay
Exercise: state measured molecular ellipticity for each of the molecules provided.

Sample records with molecular ellipticity:
• O=C(O)c1cc2c3ccccc3n(Cc3ccccc3)c2c(CCN[C@@H](CO)C(=O)O)n1 = -23700 deg.cm2/dmol
• O=C(O)C[C@H](NCCc1nc(C(=O)O)cc2c3ccccc3n(Cc3ccccc3)c12)C(=O)O = -36300 deg.cm2/dmol

Can you give me molecular ellipticity for all of these, one by one?
1. O=C(O)c1cc2c3ccccc3n(Cc3ccccc3)c2c(CCN[C@@H](Cc2ccc(O)cc2)C(=O)O)n1
2. C[C@@H](O)[C@H](NCCc1nc(C(=O)O)cc2c3ccccc3n(Cc3ccccc3)c12)C(=O)O

Completion:
["-1080 deg.cm2/dmol", "-5800 deg.cm2/dmol"]

All values here come from ChEMBL document CHEMBL3044617.
